Numbers sourced from patent US11345702B1.

Overview of recorded IC50 for various compounds
- experimental_target: 15-PGDH/HPGD (Homo sapiens (Human), UniProt P15428)
- Sequence (P15428 whole entry): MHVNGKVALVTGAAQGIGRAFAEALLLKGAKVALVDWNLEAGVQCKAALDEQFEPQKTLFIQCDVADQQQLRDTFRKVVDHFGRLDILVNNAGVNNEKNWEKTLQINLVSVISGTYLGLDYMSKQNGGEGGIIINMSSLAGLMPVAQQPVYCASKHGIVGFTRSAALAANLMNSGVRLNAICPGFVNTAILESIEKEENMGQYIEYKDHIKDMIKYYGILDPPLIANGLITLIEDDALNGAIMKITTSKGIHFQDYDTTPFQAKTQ
- procedure_text: hPGDH inhibitor screening biochemical assay
- details: read-out: hPGDH: Average IC50

The compound listed as O=C(c1cnc2c(ccn2-c2ccc(CO)cc2)c1)N1CCCCC1 [MF-DH-307] shows IC50 equal to < 100 nM

The compound listed as Nc1ncc(-n2ccc3cc(C(=O)N4CCCCC4)cnc32)cc1Cl [MF-DH-393] shows IC50 equal to < 100 nM

The compound listed as NCCNC(=O)c1cccc(-n2ccc3cc(C(=O)N4CCC(F)(F)CC4)cnc32)c1 [MF-DH-467] shows IC50 equal to 100 to 1000 nM

The compound listed as O=C(c1cnc2c(ccn2C2CCC(F)(F)CC2)c1)N1CCCCC1 [MF-DH-284] shows IC50 equal to ≥ 1000 nM

The compound listed as CCOC(=O)CCc1nc2cc(C(=O)N3CCCCC3)ccc2n1-c1cccc(Cl)c1 [MF-PGDH-033] shows IC50 equal to < 100 nM

The compound listed as O=C(c1ccc2c(c1)ncn2-c1cccc(Cl)c1)N1CCCCC1 [MF-PGDH-023] shows IC50 equal to < 100 nM

The compound listed as O=C(c1cnc2c(ccn2-c2cncnc2)c1)N1CCCCC1 [MF-PGDH-070] shows IC50 equal to < 100 nM

The compound listed as Cc1c(C(=O)N2CCC(F)CC2)cnc2c1ccn2-c1ccc(C#N)cc1 [MF-DH-387] shows IC50 equal to < 100 nM

The compound listed as COc1ccccc1NC(=O)c1ccc(C(=O)N2CCCCC2)cc1 [MF-PGDH-043] shows IC50 equal to 100 to 1000 nM

The compound listed as COc1ccc(-n2cnc3cc(C(=O)N4CCCCC4)ccc32)nc1 [MF-PGDH-022] shows IC50 equal to < 100 nM

----------
Overview of recorded solubility for various compounds
- procedure_text: Solubility at pH 7.4
- Format: physicochemical
- details: pH 7.4, aqueous buffer; read-out: Solubility: Solubility at pH 7.4

Consider the reported solubility for these compounds:
[[record]]
smiles_input = "O=C(c1cnc2c(ccn2-c2cncc(-c3noc(=O)[nH]3)c2)c1)N1CCC(F)(F)CC1"
readout_name = "solubility"
test_result = "> 100 µM"

[[record]]
smiles_input = "CC(C)NC(=O)c1ccc(-n2ccc3cc(C(=O)N4CCC(F)(F)CC4)cnc32)cc1"
readout_name = "solubility"
test_result = "< 5 µM"

[[record]]
smiles_input = "COc1ccc(Cn2ncc3cc(-n4ccc5cc(C(=O)N6CCCCC6)cnc54)ccc32)cc1"
readout_name = "solubility"
test_result = "< 5 µM"


Next, consider the following compound.
The compound listed as O=C(c1cnc2c(ccn2-c2cncc(-c3nnn[nH]3)c2)c1)N1CCC(F)(F)CC1 shows solubility equal to > 100 µM

----------
- experimental_target: 15-PGDH/HPGD (Homo sapiens (Human))
- procedure_text: hPGDH inhibitor screening biochemical assay
- details: read-out: hPGDH: Average IC50
readout_name: IC50

Consider the reported IC50 for these compounds:
[[record]]
compound = "COc1cncc(-n2cc(Cl)c3cc(C(=O)N4CCCCC4)cnc32)c1"
test_result = "< 100 nM"

[[record]]
compound = "CC(C)(C(N)=O)c1cncc(-n2ccc3cc(C(=O)N4CCC(F)(F)CC4)cnc32)c1"
test_result = "< 100 nM"

[[record]]
compound = "O=C(c1ccc2c(c1)ncn2-c1cccc(Cl)c1)N1CCCC1"
test_result = "100 to 1000 nM"

[[record]]
compound = "COc1ccc(-n2cnc3cc(C(=O)N4CCC(F)CC4)ccc32)cc1"
test_result = "< 100 nM"

[[record]]
compound = "O=C(c1ccc(C[S+]([O-])c2ccccc2Cl)cc1)N1CCCCC1 (stereo not drawn)"
test_result = "100 to 1000 nM"


The compound listed as O=C(c1cnc2c(ccn2-c2cccnc2)c1)N1CCCCC1 shows IC50 equal to < 100 nM

----------
- procedure_text: Liver microsome stability assay (MLM)
- Assay type: in vitro ADME
- details: mouse liver microsomes
readout_name: MLM + NADPH (% remaining at 45 min) (%)
Quick reminder: number only, in %, skip the unit.

Consider the reported MLM + NADPH (% remaining at 45 min) for these compounds:
[[record]]
compound = "O=C(c1cnc2c(ccn2-c2ccc(-c3n[nH]c(C4CC4)n3)nc2)c1)N1CCC(F)(F)CC1 [MF-DH-518]"
result_unit = "%"
test_result = 92

[[record]]
compound = "NCCNC(=O)c1ccc(-n2ccc3cc(C(=O)N4CCC(F)(F)CC4)cnc32)cc1 [MF-DH-411]"
result_unit = "%"
test_result = 87

[[record]]
compound = "Cc1nc(-c2cncc(-n3ccc4cc(C(=O)N5CCC(F)(F)CC5)cnc43)c2)no1 [MF-DH-470]"
result_unit = "%"
test_result = 74

[[record]]
compound = "CC(C)(O)CNC(=O)c1cc(Cl)cc(-n2ccc3cc(C(=O)N4CCC(F)(F)CC4)cnc32)c1 [MF-DH-521]"
result_unit = "%"
test_result = 84

[[record]]
compound = "O=C(c1cnc2c(ccn2-c2cncc(-c3noc(=O)[nH]3)c2)c1)N1CCC(F)(F)CC1 [MF-DH-454]"
result_unit = "%"
test_result = 92


Next, consider the following compound.
The compound listed as CC(C)(C)CNC(=O)c1cncc(-n2ccc3cc(C(=O)N4CCC(F)(F)CC4)cnc32)c1 [MF-DH-405] shows MLM + NADPH (% remaining at 45 min) equal to 86

----------
- experimental_target: 15-PGDH/HPGD (Homo sapiens (Human))
- procedure_text: hPGDH inhibitor screening biochemical assay
- details: read-out: hPGDH: Average IC50
pIC50: −log10 of the molar value.
Overview of recorded pIC50 for various molecules

Consider the reported pIC50 for these molecules:
[[record]]
molecule = "O=C(c1ccc(COc2ccccc2Cl)cc1)N1CCCCC1 [MF-PGDH-037]"
readout_name = "pIC50"
test_result = "> 7.00"

[[record]]
molecule = "O=C(O)c1ccc(-n2ccc3cc(C(=O)N4CCC(F)(F)CC4)cnc32)cn1 [MF-DH-434]"
readout_name = "pIC50"
test_result = "> 7.00"

[[record]]
molecule = "COc1ccc(-n2c(CC#N)nc3cc(C(=O)N4CCC(F)CC4)cnc32)cc1 [MF-DH-130]"
readout_name = "pIC50"
test_result = "6.00 to 7.00"

[[record]]
molecule = "O=C(c1ccc2c(c1)nnn2-c1cccc(Cl)c1)N1CCCCC1 [MF-PGDH-011]"
readout_name = "pIC50"
test_result = "> 7.00"

[[record]]
molecule = "NC(=O)c1ccc(-n2ccc3cc(C(=O)N4CCCCC4)cnc32)cn1 [MF-DH-365]"
readout_name = "pIC50"
test_result = "> 7.00"


Next, consider the following molecule.
The molecule listed as O=C(c1cnc2c(ccn2-c2cnccn2)c1Cl)N1CCC(F)CC1 [MF-DH-146] shows pIC50 equal to > 7.00

----------
Overview of recorded IC50 for various compounds
- experimental_target: 15-PGDH/HPGD (Homo sapiens (Human), UniProt P15428)
- procedure_text: hPGDH inhibitor screening biochemical assay
- details: read-out: hPGDH: Average IC50
- Text: A hydroxyprostaglandin dehydrogenase inhibition screening biochemical assay can be performed to assess the synthesized inhibitors provided herein. Provided herein is an exemplary biochemical assay for hPGDH inhibitor screening. […]

Consider the reported IC50 for these compounds:
[[record]]
smiles_input = "COc1ccc(-n2cnc3cc(C(=O)N4CC(F)C4)cnc32)cc1"
test_result = "100 to 1000 nM"

[[record]]
smiles_input = "CC(C)(O)CCc1cc2cc(C(=O)N3CCC(F)(F)CC3)cnc2n1-c1ccc(C(=O)O)cc1"
test_result = "< 100 nM"

[[record]]
smiles_input = "O=C(Nc1ccc(C(=O)N2CCCCC2)cc1)c1ccccc1Cl"
test_result = "100 to 1000 nM"


GET /values?item= COc1cccc(-n2cc(Cl)c3cc(C(=O)N4CCCCC4)cnc32)c1 &system= 15-PGDH/HPGD (Homo sapiens (Human), UniProt P15428) returns IC50: < 100 nM

GET /values?item= O=C(c1ccc2c(-c3cccc(Cl)c3)c[nH]c2c1)N1CCCCC1 &system= 15-PGDH/HPGD (Homo sapiens (Human), UniProt P15428) returns IC50: < 100 nM
